Assign inhibition to each entry below.
- System: transactivating tegument protein VP16 (Human herpesvirus 1), Gal4-VP16 luciferase reporter
- experiment_description: VP16 transactivation inhibitors, counter-screen for SRC3 inhibitor project, cell-based, luminescence, high throughput (AID 588794)
- cond: mammalian cells, VP16-driven luciferase reporter luminescence; at 3.6 µM; stronger effect = higher value
Could you give me the number in %? Just the number is fine.

Problem: Bench note: what inhibition did CN(CC1CCCO1)S(=O)(=O)c1ccc(C(=O)Nc2nc3cc4c(cc3s2)OCO4)cc1 (stereo unspecified) show?
Result: 39.8

Problem: Param item: `O=C(Nc1sc2c(c1C(=O)O)CCCCC2)c1ccccc1`
Result: 24.2

Problem: Param item: `Nc1ccc(-c2cnc(N)c(C(=O)c3cccnc3)n2)cn1`
Result: 55.7

Problem: Param item: CC1CCc2nc(NC(=O)CSc3nc4ccccc4o3)sc2C1 (stereo unspecified)
Result: 15.8

Problem: Param item: `O=C(N/N=C/c1ccc(O)cc1O)c1ccc(CN2C(=O)c3cccc4cccc2c34)cc1`
Result: 77.8

Problem: Param item: `C[n+]1c(-c2ccccc2)cc2c(=Cc3ccccc3)c3ccccc3n21`
Result: 70.3

###

- experiment_description: VP16 transactivation inhibitors, counter-screen for SRC1 inhibitor project, cell-based, luminescence, high throughput (AID 588824)
- cond: cell-based VP16 transactivation luciferase luminescence; at 3.6 µM; stronger effect = higher value
property_label: inhibition (%)
Could you give me the number in %? Just the number is fine.

Problem: Bench note: what inhibition did `O=C(NC1CCCC1)C1CCN(C(=O)c2cccc(Cl)c2)CC1` show?
Result: -3.66

Problem: Param item: `Cc1ccc(OCC(=O)c2cc(C)n(-c3ccccc3)c2C)c([N+](=O)[O-])n1`
Result: -31.4

Problem: Param item: `COc1ccc(-c2[nH]ncc2CN(C)Cc2nonc2C)c(OC)c1`
Result: -13.1

Problem: Param item: `CCCCCCn1c2c(c(=N)c3c1CCC3)CCC2`
Result: 76.4

Problem: Param item: `Nc1cc2c3c(cccc3c1)C(=O)N(CCN1CCCC1)C2=O`
Result: 46.9

Problem: Param item: `Cc1ccc(-n2c(C)c([N+](=O)[O-])c3ccc(O)c(CN(C)C)c32)cc1`
Result: 49.5

Problem: Param item: `O=C(CC(O)(C(F)(F)F)C(F)(F)F)Nc1ccc(Cl)c(Cl)c1`
Result: 74.2

Problem: Param item: O=C(Cc1cccs1)N(CC1CCCO1)C1(C(=O)NC2CCCC2)CCCCC1 (configuration not stated)
Result: 17.6

Problem: Param item: `NC(=O)c1cc(Sc2ccccc2)nc2ccccc12`
Result: 16

Problem: Param item: COc1ccccc1C(=O)N(CCC1CCCN1C)c1nc2ccccc2s1 (configuration not stated)
Result: -21.5

Problem: Param item: `CCN(C(=O)c1cccc(S(=O)(=O)N(C)C)c1)C12CC3CC(CC(C3)C1)C2`
Result: 19.5

Problem: Param item: `O=C(NCc1cccnc1)/C(=C/c1ccc(-c2ccc(Cl)cc2)o1)S(=O)(=O)c1ccccc1`
Result: 47

Problem: Param item: `N#Cc1c(-c2ccccc2)c(C#N)c2nc3ccccc3n2c1N`
Result: 17.8

Problem: Param item: `CCOc1ccc(/C=C2\SC(=S)N(CCC(=O)O)C2=O)cc1`
Result: -38.8

Problem: Param item: `COc1ccc(/C=C2\CC/C(=C\c3ccc(OC)c(OC)c3)C2=O)cc1OC`
Result: 16.9

Problem: Param item: `OC[C@@H]1CN(Cc2ccc(-c3ccccc3)cc2)C[C@H](n2cnc3c(NCc4ccncc4)ncnc32)O1`
Result: 28.9

Problem: Param item: CN(CC1CCCO1)S(=O)(=O)c1ccc(C(=O)Nc2nc3cc4c(cc3s2)OCO4)cc1 (configuration not stated)
Result: 39.8

Problem: Param item: `CCCn1ncc(/C=N/O)c1C`
Result: 25.9

Problem: Param item: `COc1cccc(NC(=O)Nc2nc(-c3ccc(OC)c(OC)c3)cs2)c1`
Result: 74

Problem: Param item: `O=C(NCCc1ccccc1F)c1ccc2c(c1)OCCO2`
Result: 54.6

Problem: Param item: `CCCCCCN1C2=NCCCN2c2ccccc21`
Result: 10.4

Problem: Param item: `CN(C)C(=O)c1cccc(-c2cnc3sc(NCc4ccc5c(c4)OCO5)nn23)c1`
Result: 33.7

Attribution: PubChem BioAssay
